Can you tell me Emax for the items I'm about to list?
Target: Muscarinic acetylcholine receptor M1 (Homo sapiens)
Test: Positive allosteric modulation of human muscarinic acetylcholine M1 receptor expressed in CHO cells in presence of acetylcholine at EC20 concentration by calcium mobilization assay relative to acetylcholine
Assay type: functional, cell-based
Details: filed as positive allosteric modulator, time 3.5 min
Give the quantity in %, number only.

(Q) I am curious: what Emax value has been reported for Cn1cc2c(-c3cc(F)c(CN4Cc5cn(CC6CCCO6)nc5C4=O)c(F)c3)cccc2n1 (stereo not drawn) ?
(A) 61

(Q) Repeat for the following compound: Cn1cc2c(-c3ccc(CN4Cc5sccc5C4=O)c(F)c3)cccc2n1
(A) 67

(Q) Repeat for the following compound: Cn1cc2c(-c3cc(F)c(CN4Cc5ccn(CCCO)c5C4=O)c(F)c3)cccc2n1
(A) 67

* * *

Target: Muscarinic acetylcholine receptor M1 (Homo sapiens, UniProt P11229)
Sequence (P11229 whole entry): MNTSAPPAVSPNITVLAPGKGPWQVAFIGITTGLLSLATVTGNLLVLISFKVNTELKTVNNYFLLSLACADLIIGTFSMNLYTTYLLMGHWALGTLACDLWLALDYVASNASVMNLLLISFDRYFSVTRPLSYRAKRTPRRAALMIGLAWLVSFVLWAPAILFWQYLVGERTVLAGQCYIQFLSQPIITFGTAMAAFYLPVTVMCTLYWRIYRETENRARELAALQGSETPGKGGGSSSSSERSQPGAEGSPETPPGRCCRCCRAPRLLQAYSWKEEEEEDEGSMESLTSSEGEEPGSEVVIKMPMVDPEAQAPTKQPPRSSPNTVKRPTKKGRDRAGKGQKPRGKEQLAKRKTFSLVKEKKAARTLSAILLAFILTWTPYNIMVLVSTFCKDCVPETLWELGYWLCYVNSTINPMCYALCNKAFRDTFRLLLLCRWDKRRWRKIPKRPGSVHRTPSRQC
Assay: Positive allosteric modulation of human muscarinic acetylcholine M1 receptor expressed in CHO cells in presence of acetylcholine at EC20 concentration by calcium mobilization assay
metric: EC50 (µM)
Give the quantity in µM, number only.

(Q) For the record Cn1cc2c(-c3cc(F)c(CN4Cc5sccc5C4=O)c(F)c3)cccc2n1 , what value of EC50 is listed for Muscarinic acetylcholine receptor M1 (Homo sapiens, UniProt P11229)?
(A) 1.92

(Q) Repeat for the following molecule: Cn1cc2c(-c3cc(F)c(CN4Cc5cn(CC6CCCO6)nc5C4=O)c(F)c3)cccc2n1 (centres undefined)
(A) 3.54

* * *

Target: Muscarinic acetylcholine receptor M3 (Homo sapiens)
Sequence (P20309 whole entry): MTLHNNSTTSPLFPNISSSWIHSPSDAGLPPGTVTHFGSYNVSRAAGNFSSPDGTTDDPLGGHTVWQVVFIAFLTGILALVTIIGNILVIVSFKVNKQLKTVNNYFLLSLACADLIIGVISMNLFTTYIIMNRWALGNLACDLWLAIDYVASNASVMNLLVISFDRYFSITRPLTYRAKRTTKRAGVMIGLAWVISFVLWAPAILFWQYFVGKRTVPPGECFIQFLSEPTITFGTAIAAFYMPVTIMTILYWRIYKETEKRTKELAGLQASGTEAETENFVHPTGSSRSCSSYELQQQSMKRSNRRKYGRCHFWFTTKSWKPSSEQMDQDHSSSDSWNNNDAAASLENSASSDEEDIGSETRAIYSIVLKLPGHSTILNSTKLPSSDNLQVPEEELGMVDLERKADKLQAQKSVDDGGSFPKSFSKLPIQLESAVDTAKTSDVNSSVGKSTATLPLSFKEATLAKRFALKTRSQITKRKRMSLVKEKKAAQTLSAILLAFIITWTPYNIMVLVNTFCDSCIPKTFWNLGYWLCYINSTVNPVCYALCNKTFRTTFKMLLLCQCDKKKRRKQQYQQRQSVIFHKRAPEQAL
Assay: Positive allosteric modulation of human muscarinic acetylcholine M3 receptor expressed in CHO cells in presence of acetylcholine at EC20 concentration by calcium mobilization assay
pEC50: −log10 of the molar value.
metric: pEC50

(Q) I am curious: what pEC50 value has been reported for Cn1cc2c(-c3cc(F)c(CN4Cc5cnn(CC6CCCO6)c5C4=O)c(F)c3)cccc2n1 (configuration not stated) ?
(A) < 5.00

(Q) Repeat for the following compound: Cn1cc2cc(-c3ccc(CN4Cc5ncsc5C4=O)c(F)c3)ccc2n1
(A) < 5.00

* * *

Molecular target: Muscarinic acetylcholine receptor M1 (Homo sapiens) (UniProt P11229)
Sequence (whole entry): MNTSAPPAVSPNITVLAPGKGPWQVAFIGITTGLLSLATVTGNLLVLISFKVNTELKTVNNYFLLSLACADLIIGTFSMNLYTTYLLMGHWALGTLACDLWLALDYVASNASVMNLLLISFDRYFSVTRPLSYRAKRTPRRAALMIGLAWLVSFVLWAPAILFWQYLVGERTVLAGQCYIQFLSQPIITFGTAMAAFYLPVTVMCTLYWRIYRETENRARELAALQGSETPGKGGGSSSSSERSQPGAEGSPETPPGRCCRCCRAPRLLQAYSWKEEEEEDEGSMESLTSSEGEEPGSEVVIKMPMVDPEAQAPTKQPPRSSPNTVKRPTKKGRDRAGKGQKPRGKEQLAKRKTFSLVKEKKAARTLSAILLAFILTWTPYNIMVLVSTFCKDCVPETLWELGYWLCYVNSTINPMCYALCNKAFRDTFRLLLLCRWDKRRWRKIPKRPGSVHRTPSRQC
Test: Positive allosteric modulation of human muscarinic acetylcholine M1 receptor expressed in CHO cells in presence of acetylcholine at EC20 concentration by calcium mobilization assay relative to acetylcholine
Assay type: functional, cell-based
Details: filed as positive allosteric modulator, time 3.5 min
Can you tell me Emax for the items I'm about to list?
Give the quantity in %, number only.

(Q) I am curious: what Emax value has been reported for Cn1cc2cc(-c3cc(F)c(CN4Cc5occc5C4=O)c(F)c3)ccc2n1 ?
(A) 45

(Q) Repeat for the following molecule: Cn1cc2c(-c3cc(F)c(CN4Cc5ccn(CC6CCCO6)c5C4=O)c(F)c3)cccc2n1 (stereo not given)
(A) 58

(Q) Repeat for the following molecule: Cn1cc2c(-c3cc(F)c(CN4Cc5cnn(CCN6CCCC6)c5C4=O)c(F)c3)cccc2n1
(A) 87

(Q) Repeat for the following molecule: COCCn1ncc2c1C(=O)N(Cc1c(F)cc(-c3cccc4nn(C)cc34)cc1F)C2
(A) 84

(Q) Repeat for the following molecule: Cn1cc(-c2ccc(CN3Cc4ccsc4C3=O)c(F)c2)cn1
(A) 67

(Q) Repeat for the following molecule: Cn1cc2cccc(-c3cc(F)c(CN4Cc5cnn(CC6CCCO6)c5C4=O)c(F)c3)c2n1 (stereo not given)
(A) 66

(Q) Repeat for the following molecule: Cc1cc(-c2cc(F)c(CN3Cc4cnn(CC5CCCO5)c4C3=O)c(F)c2)ccn1 (stereo not given)
(A) 65

(Q) Repeat for the following molecule: Cn1cc2c(-c3cc(F)c(CN4Cc5ccsc5C4=O)c(F)c3)cccc2n1
(A) 66

(Q) Repeat for the following molecule: Cn1cc2cc(-c3ccc(CN4Cc5sccc5C4=O)c(F)c3)ccc2n1
(A) 51

(Q) Repeat for the following molecule: Cn1cc2c(-c3cc(F)c(CN4Cc5cn(CCN6CCCC6)nc5C4=O)c(F)c3)cccc2n1
(A) 57

(Q) Repeat for the following molecule: Cn1cc2c(-c3cc(F)c(CN4Cc5sccc5C4=O)c(F)c3)cccc2n1
(A) 75

(Q) Repeat for the following molecule: Cn1cnc2ccc(-c3cc(F)c(CN4Cc5sccc5C4=O)c(F)c3)cc21
(A) 60

(Q) Repeat for the following molecule: Cn1cc2cc(-c3cc(F)c(CN4Cc5ccsc5C4=O)c(F)c3)ccc2n1
(A) 40

(Q) Repeat for the following molecule: Cn1cc2cc(-c3cc(F)c(CN4Cc5sccc5C4=O)c(F)c3)ccc2n1
(A) 59

(Q) Repeat for the following molecule: Cn1cc2cc(-c3cc(F)c(CN4Cc5cnn(CC6CCCO6)c5C4=O)c(F)c3)ccc2n1 (stereo not given)
(A) 79
